assay: Quantitative High-Throughput drug screen in 47 multiple myeloma cell lines against the NCATS MIPE library collection: XG6_PLB cell viability assay (AID 1919865); settings: XG6 myeloma viability, CellTiter-Glo ATP luminescence, 48 h; series mostly up to 45.8 µM; also: nearly all actives have a fitted effect of over 40% in size
Results filed as inconclusive are left out. Active and inactive are the calls of the source. Calls follow the shape of the dose curve; as a rule, active = well fitted cell-killing curve with a large enough effect; inconclusive = small, poorly fitted or top-dose-only effect, or effect the other way; inactive = no such curve, though single readings can be large or run the other way.
Lab note: assign the record to one of active, inactive

Below, 3 compounds whose answers are already recorded.
CN1[C@H]2CC(O)C[C@H]1[C@H]1O[C@H]12 (stereo partly specified)
active
C1=C2CCCN[C@H]2[C@@H]2C[C@H]1[C@@H]1CCCCN1C2
inactive
COc1cc2cc(c1Cl)N(C)C(=O)C[C@H](OC(=O)C(C)C)[C@]1(C)O[C@H]1[C@H](C)[C@@H]1C[C@@](O)(NC(=O)O1)[C@H](OC)C=CC=C(C)C2
inactive

In: Just curious, what result did CCNC(=O)CC1N=C(c2ccc(Cl)cc2)c2cc(OC)ccc2-n2c(C)nnc21 (stereo unspecified) get here?
Out: active

In: Per the records of this test, what outcome belongs to `O=C1CCC[C@@H]2[C@H]3CCCN4CCC[C@@H](CN12)[C@@H]34` ?
Out: inactive

In: I would be grateful if you could indicate the recorded call for CC(N[C@H]1C[C@H]1c1ccccc1)c1ccc2c(c1)OCCO2 (stereo partly specified) .
Out: inactive

====

assay: Quantitative High-Throughput drug screen in 47 multiple myeloma cell lines against the NCATS MIPE library collection: Delta47_JCRB cell viability assay (AID 1918925; also: nearly all actives have a fitted effect of over 45% in size); conditions: Delta47 myeloma viability, CellTiter-Glo ATP, 48 h; series mostly up to 45.8 µM
Results filed as inconclusive are left out. The source made the active and inactive calls. Calls follow the shape of the dose curve; as a rule, active = well fitted cell-killing curve with a large enough effect; inconclusive = small, poorly fitted or top-dose-only effect, or effect the other way; inactive = no such curve, though single readings can be large or run the other way.
Hello, when you answer, please use one of the following outcomes: y (active), n (inactive)

In: # outcome recorded in this test, key = `O=C1CCC[C@@H]2[C@H]3CCCN4CCC[C@@H](CN12)[C@@H]34`
Out: n

In: Entry `CC(C)[C@H]1C(=O)N[C@H](CO)Cc2c[nH]c3cccc(c23)N1C` : call = ?
Out: n

In: Write down the call the test reported for this compound. Item: `O=C(NCC1CCOCC1)c1cnc(Nc2ccc(Cl)cc2Cl)nc1C(F)(F)F`
Out: y

In: Record lookup: outcome of this test for `CC(C)N(CCNC(=O)CN1CCCC1=O)C(C)C` ?
Out: n

In: Can you look up the reported call for CCOP(=O)(OCC)C(C)NC(=O)N(CCCl)N=O (configuration not stated) for me?
Out: n

====

Assay: qHTS drug screen for cell cycle checkpoint inhibitors in PARPi-resistant BRCA-mutant ovarian cancer cell lines. (AID 1963452)
Settings: PEO1/OlaR viability, CellTiter-Glo luminescence, 96 h; active compounds read low
Text: Women's Malignancies Branch, Center for Cancer Research (CCR), National Cancer Institute (NCI), National Institutes of Health (NIH), Bethesda, MD Poly (ADP-ribose) polymerase inhibitors (PARPis) have changed the treatment paradigm in breast cancer gene (BRCA) - mutant high-grade serous ovarian carcinoma (HGSC). […] 6; Detection; Luminescence, PHERAstar (BMG Labtech) plate reader. […] 6. Luminescence readings were taken using PHERAstar (BMG Labtech). […]
Listing of recorded Z-AUC by entry.
Provide a numeric answer; units are not to be included.

N=c1c2c(-c3ccccc3)c(-c3ccccc3)n(Cc3ccccc3)c2ncn1C1CCC(O)CC1 (stereo not drawn)
0.292
O=C(N[C@H]1CN2CCC1CC2)c1ccc(Cl)cc1
-0.714

We now examine a further compound.
In: What Z-AUC value was documented for this compound, NC1=NC(=O)N2CC12 (stereo not drawn) ?
Out: -1.19
